- test-target: basic fibroblast growth factor (bFGF) (Homo sapiens, UniProt P09038 P09038:143-288)
- Sequence (P09038 143-288, one chain of several): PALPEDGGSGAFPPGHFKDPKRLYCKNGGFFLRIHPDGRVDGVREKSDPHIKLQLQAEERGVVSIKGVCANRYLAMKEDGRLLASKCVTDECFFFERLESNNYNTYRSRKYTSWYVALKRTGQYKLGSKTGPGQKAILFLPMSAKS
- measurement-protocol: filter; specificity control, like random RNA; TBSC
measured-property: pKd
The quantity pKd is defined as the negative base-10 logarithm of the molar concentration.

Query: pKd; subject: NN19.15 (ssRNA, 2'-NH2 all C and U) RNA: GGGAAAAGAAGACCGGCCGGCGCCAUAGCCGAGAUCCGAGGUGUUGCCGAGAA 6.78
